# method description: Simulation of steady state exposure from the final population PK model (sensitive plot)
# Type: in vivo, human
# test conditions: male, human, plasma, oral, 100 mg, 100 mg once daily for 12 weeks; typical subject: male, healthy volunteer, fasted 10 h, ALT=31.6 IU l^-1; read-out: AUCss, base
test readout: AUC (ng·h/mL)
Give just the numeric value; ng·h/mL need not be written.

Report measured AUC; entry is COC(=O)NC(C(=O)N1CCCC1c1ncc(-c2ccc(-c3ccc(-c4ccc5nc(C6CCCN6C(=O)C(NC(=O)OC)C(C)C)[nH]c5c4)c4c3C3CCC4C3)cc2)[nH]1)C(C)C (stereo not shown)
7250

Hello, the source for this data is paper PMC7876056, in case you need it.
